# System Tested: T1, Pep5 (human)
# T1 construct: also called Peptide 5
# T1 peptide: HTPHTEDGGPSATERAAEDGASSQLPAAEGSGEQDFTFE
# Assay Overview: ELISA, coated peptide; note: test concentration or dose not given here
Entries and their measured ELISA O.D. follow.
Readout Kind: ELISA O.D. (O.D.)

| Binder | Readout Kind | Value Unit | Measurement |
| --- | --- | --- | --- |
| antibody 617 (antibody, V domains shown, Mouse hybridoma-derived anti-CD138 antibody) VH: QVQLQLPGAELVKPGASVKVSCKASAYTFTSYWMHWVKQRPGQGLEWIGRIHPSDSDTNYNQNFKGKATLTVDKSSNTAYMQLSSLTSEDSAVYYCATGFSFWGQGTLVTVSA VL: DIVMTQSHKFMSTSVGDRVSITCKASQDVSTTVAWYQQKPGQSPKLLIYSASYRYTGVPDRFTGSGSGTDFTFTISSVQAEDLAVYYCQQHYSTRPTFGGGTKLEIK | ELISA O.D. | O.D. | 0.066 |
| antibody 619 (antibody, V domains shown, Mouse hybridoma-derived anti-CD138 antibody) VH: QIQLVQSGPELKKPGETVKISCKASGYTFTTYGMSWVKQAPGKGLKWMGWINTYSGVPTYADDFKGRFAFSLETSASTAYLQINNLKNEDTATYFCAREGSTMVTRYYFDYWGQGTTLTVSS VL: DIVMTQAAPSVPVTPGESVSISCRSSKSLLHSNGNTYLYWFLQRPGQSPQVLIYRMSNLASGVPDRFSGSGSGTAFTLRISRVEAEDVGVYYCMQHLESPYTFGGGTKLEIK | ELISA O.D. | O.D. | 0.066 |
| antibody 616 (antibody, V domains shown, Mouse hybridoma-derived anti-CD138 antibody) VH: QIHLVQSGPELKKPGETVRISCKASGYTFTTYGMSWVKQAPGKALKWMGWINTYSGVPTYADDFKGRFAFSLETSASTAYLQINNLKNEDTATYFCTREGSTMVTRYYFDYWGQGTTLTVSS VL: DIVMTQAAPSVPVTPGESVSISCRSSKSLLHSNGNTYLYWFLQRPGQSPQLLIYRMSNLASGVPDRFSGSGSGTAFTLRISRVEAEDVGVYHCMQHLESPYTFGGGTTLEIK | ELISA O.D. | O.D. | 0.061 |
| antibody 623 (antibody, V domains shown, Mouse hybridoma-derived anti-CD138 antibody) VH: QIQLVQSGPELKKPGETVKISCKASGYTFTTYGMSWVKQAPGKGLKWMGWINTYSGVPTYADDFKGRFAFSLETSASTAYLQINNLKNEDTATFFCAREGSTMVTRYYFDYWGQGTTLTVSS VL: DIVMTQAAPSVPVTPGESVSISCRSSKSLLHSNGNTYLYWFLQRPGQSPQLLIYRMSNLASGVPDRFSGSGSGTAFTLRISRVEAEDVGVYYCMQHLEYPSTFGGGTKLEIK | ELISA O.D. | O.D. | 0.08 |
